Measured RAT MICROSOMAL STABILITY (% REMAINING AFTER 30 MINUTES) values are reported for all entries that follow.
- protocol.details: In vitro rat microsomal stability assay
- Type: in vitro ADME, rat (Sprague-Dawley)
- test.conditions: Sprague-Dawley, rat, microsomes, 0.5 h, 0.5 μM, pH 7.4
The figure you give is taken to be in %; do not add the unit.

Consider the worked cases shown below.
compound	unit.name	observed.result
N[C@H]1CCC[C@H]1[C@@H](O)C1(c2ccc(OC(F)(F)F)cc2)CCC1 [Example 229]	%	80
OC(c1ccccn1)C1(c2cc(C(F)(F)F)cc(C(F)(F)F)c2)CCC1 (stereo not drawn) [Example 13]	%	19
OC(c1ccccn1)C1(c2ccc(Cc3ccccc3)cc2)CCC1 (stereo not drawn) [Example 25]	%	1.3

-- ask Reported RAT MICROSOMAL STABILITY (% REMAINING AFTER 30 MINUTES), compound N[C@H]1CCC[C@@H]1[C@H](O)C1(c2ccc(OC(F)(F)F)cc2)CCC1 [Example 222] : ____
-- reply 59

-- ask Reported RAT MICROSOMAL STABILITY (% REMAINING AFTER 30 MINUTES), compound OC(c1ccccn1)C1(c2cccc(F)c2)CCCO1 (single isomer, unassigned) [Example 100] : ____
-- reply 2.9

-- ask Reported RAT MICROSOMAL STABILITY (% REMAINING AFTER 30 MINUTES), compound OC(c1ccccn1)C1(c2ccc(Cl)c(Cl)c2)COC1 (stereo not drawn) [Example 87] : ____
-- reply 8.6

-- ask Reported RAT MICROSOMAL STABILITY (% REMAINING AFTER 30 MINUTES), compound OC(c1ccccn1)C1(c2ccc(OC(F)(F)F)cc2)CCCO1 (single isomer, unassigned) [Example 95] : ____
-- reply 0.61

-- ask Reported RAT MICROSOMAL STABILITY (% REMAINING AFTER 30 MINUTES), compound OC(c1ccccn1)C1(C2CCC(F)(F)CC2)CCC1 (stereo not drawn) [Example 274] : ____
-- reply 10
